B1: library; a variant is named by its letters at N, in order (parent)
chain: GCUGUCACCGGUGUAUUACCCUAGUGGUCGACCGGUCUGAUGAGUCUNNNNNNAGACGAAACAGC

Variants of: B1
PROTOCOL DESCRIPTION: normalized RNA/DNA level without ligand (relative to sTRSVctl = 100) (log10 (% of sTRSVctl)); ligand: hypoxanthine (xanthine aptamer); higher = less ribozyme self-cleavage, higher mRNA level
MEASUREMENT CONDITIONS: HEK293T, reporter: mCherry (pCS4076), ligand present: no
QUANTITY KIND: normalized RNA/DNA level without ligand (log10)
Respond with the number and no other words.

Example entries and their recorded answers appear below.
{"POLYMER SEQUENCE": "GCUGUCACCGGUGUAUUACCCUAGUGGUCGACCGGUCUGAUGAGUCUACCAGGAGACGAAACAGC [ACCAGG]", "VAL": 1.44}
{"POLYMER SEQUENCE": "GCUGUCACCGGUGUAUUACCCUAGUGGUCGACCGGUCUGAUGAGUCUAAUAAUAGACGAAACAGC [AAUAAU]", "VAL": 1.75}
{"POLYMER SEQUENCE": "GCUGUCACCGGUGUAUUACCCUAGUGGUCGACCGGUCUGAUGAGUCUGUCGGCAGACGAAACAGC [GUCGGC]", "VAL": 1.68}
{"POLYMER SEQUENCE": "GCUGUCACCGGUGUAUUACCCUAGUGGUCGACCGGUCUGAUGAGUCUCUAUUGAGACGAAACAGC [CUAUUG]", "VAL": 1.84}
{"POLYMER SEQUENCE": "GCUGUCACCGGUGUAUUACCCUAGUGGUCGACCGGUCUGAUGAGUCUGCGCUUAGACGAAACAGC [GCGCUU]", "VAL": 1.76}
{"POLYMER SEQUENCE": "GCUGUCACCGGUGUAUUACCCUAGUGGUCGACCGGUCUGAUGAGUCUUAUUUGAGACGAAACAGC [UAUUUG]", "VAL": 1.78}
{"POLYMER SEQUENCE": "GCUGUCACCGGUGUAUUACCCUAGUGGUCGACCGGUCUGAUGAGUCUCGGGCCAGACGAAACAGC [CGGGCC]", "VAL": 1.99}
{"POLYMER SEQUENCE": "GCUGUCACCGGUGUAUUACCCUAGUGGUCGACCGGUCUGAUGAGUCUCCCUUUAGACGAAACAGC [CCCUUU]", "VAL": 1.94}
{"POLYMER SEQUENCE": "GCUGUCACCGGUGUAUUACCCUAGUGGUCGACCGGUCUGAUGAGUCUAAGUUCAGACGAAACAGC [AAGUUC]", "VAL": 1.79}
{"POLYMER SEQUENCE": "GCUGUCACCGGUGUAUUACCCUAGUGGUCGACCGGUCUGAUGAGUCUCGUAAUAGACGAAACAGC [CGUAAU]", "VAL": 1.68}

-- ask Which value of normalized RNA/DNA level without ligand (log10) has been reported for GCUGUCACCGGUGUAUUACCCUAGUGGUCGACCGGUCUGAUGAGUCUGCCGGUAGACGAAACAGC [GCCGGU] in the records?
-- reply 1.98

-- ask # repeat for GCUGUCACCGGUGUAUUACCCUAGUGGUCGACCGGUCUGAUGAGUCUGAGCGUAGACGAAACAGC [GAGCGU]
-- reply 1.65

-- ask # repeat for GCUGUCACCGGUGUAUUACCCUAGUGGUCGACCGGUCUGAUGAGUCUCUGUCGAGACGAAACAGC [CUGUCG]
-- reply 1.84

-- ask # repeat for GCUGUCACCGGUGUAUUACCCUAGUGGUCGACCGGUCUGAUGAGUCUUGAUAAAGACGAAACAGC [UGAUAA]
-- reply 1.81

-- ask # repeat for GCUGUCACCGGUGUAUUACCCUAGUGGUCGACCGGUCUGAUGAGUCUUAAGGCAGACGAAACAGC [UAAGGC]
-- reply 1.84

-- ask # repeat for GCUGUCACCGGUGUAUUACCCUAGUGGUCGACCGGUCUGAUGAGUCUGGCCGGAGACGAAACAGC [GGCCGG]
-- reply 1.84

-- ask # repeat for GCUGUCACCGGUGUAUUACCCUAGUGGUCGACCGGUCUGAUGAGUCUAGGGCAAGACGAAACAGC [AGGGCA]
-- reply 1.81

-- ask # repeat for GCUGUCACCGGUGUAUUACCCUAGUGGUCGACCGGUCUGAUGAGUCUAUAGCUAGACGAAACAGC [AUAGCU]
-- reply 1.83

-- ask # repeat for GCUGUCACCGGUGUAUUACCCUAGUGGUCGACCGGUCUGAUGAGUCUUUUUAAAGACGAAACAGC [UUUUAA]
-- reply 1.85

-- ask # repeat for GCUGUCACCGGUGUAUUACCCUAGUGGUCGACCGGUCUGAUGAGUCUAUGACUAGACGAAACAGC [AUGACU]
-- reply 1.83

-- ask # repeat for GCUGUCACCGGUGUAUUACCCUAGUGGUCGACCGGUCUGAUGAGUCUUCCUAGAGACGAAACAGC [UCCUAG]
-- reply 1.65

-- ask # repeat for GCUGUCACCGGUGUAUUACCCUAGUGGUCGACCGGUCUGAUGAGUCUGCCGACAGACGAAACAGC [GCCGAC]
-- reply 1.55
